Target: T1, human SEMA4A expressed on cells (UniProt ID Q9H3S1, isoform 1) (human, UniProt Q9H3S1 33-761)
T1 construct: Cell-surface SEMA4A: endogenous on MM.1S, NCI-H929 and Karpas-25 cells, or expi293 cells transfected with Origene SC323738; also called human Semaphorin4A; SEMA4A endogenously expressed on MM.1S cells
T1 sequence: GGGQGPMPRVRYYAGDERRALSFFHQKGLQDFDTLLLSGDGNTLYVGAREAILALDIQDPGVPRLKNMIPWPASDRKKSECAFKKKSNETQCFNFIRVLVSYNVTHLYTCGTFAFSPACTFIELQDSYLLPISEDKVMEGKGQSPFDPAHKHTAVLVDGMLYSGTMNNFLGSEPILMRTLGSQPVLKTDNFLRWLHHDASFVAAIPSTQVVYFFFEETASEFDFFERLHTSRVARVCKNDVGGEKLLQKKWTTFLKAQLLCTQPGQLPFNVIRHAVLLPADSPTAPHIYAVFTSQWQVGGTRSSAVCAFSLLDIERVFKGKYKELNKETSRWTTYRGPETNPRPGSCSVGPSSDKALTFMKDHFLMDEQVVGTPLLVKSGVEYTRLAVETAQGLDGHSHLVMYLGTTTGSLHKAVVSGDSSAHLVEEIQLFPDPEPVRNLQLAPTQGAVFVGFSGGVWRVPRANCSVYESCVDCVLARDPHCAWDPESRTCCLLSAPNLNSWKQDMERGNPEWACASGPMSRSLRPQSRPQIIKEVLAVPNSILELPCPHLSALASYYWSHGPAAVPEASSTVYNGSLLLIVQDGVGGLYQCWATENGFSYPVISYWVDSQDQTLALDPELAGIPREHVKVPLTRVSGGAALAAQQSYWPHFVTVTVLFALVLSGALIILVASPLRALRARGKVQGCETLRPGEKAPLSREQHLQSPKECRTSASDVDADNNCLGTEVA
Experiment: Mirrorball epitope competition on MM.1S cells; competitor: fixed 5E3 mouse IgG1
Readings of IC50 for the listed binders
Output spec: scalar in nM, unitless text.

Examples from the recorded data:
5Hg4-5Lg2 human Alya IgG1 (antibody, V domains shown, Humanised 5E3; human IgG1 Alya constant (239iCys, S442C, EU), lambda light chain; purified, unconjugated) VH: QVQLVQSGSELKKPGASVKVSCKASGYTFTDYWMHWVRQAPGQGLEWMGAIDTSDSYTSYNQKFKGRFVFSLDTSVSTAYLQICSLKAEDTAVYYCARDYGNFYYYAMDYWGQGTLVTVSS VL: QAVVTQEPSLTVSPGGTVTLTCRSSTGAVTTSNYANWFQQKPGQAPRTLIYGTNNRAPWTPARFSGSLLGGKAALTLLGAQPEDEAEYYCALWYSNHWVFGGGTKLTVL ... 8.4
5Hg5-5Lg2 human Alya IgG1 (antibody, V domains shown, Humanised 5E3; human IgG1 Alya constant (239iCys, S442C, EU), lambda light chain; purified, unconjugated; also called 5HE5/5Lg2) VH: EVQLVQSGAEVKKPGESLRISCKGSGYSFTDYWMHWVRQMPGKGLEWMGAIDTSDSYTSYNQKFKGQVTISADKSISTAYLQWSSLKASDTAMYYCARDYGNFYYYAMDYWGQGTLVTVSS VL: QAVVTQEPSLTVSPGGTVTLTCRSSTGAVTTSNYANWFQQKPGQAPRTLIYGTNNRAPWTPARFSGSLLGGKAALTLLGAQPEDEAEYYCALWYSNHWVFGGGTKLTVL ... 14.9
5Hg4-5Lg1 human Alya IgG1 (antibody, V domains shown, Humanised 5E3; human IgG1 Alya constant (239iCys, S442C, EU), lambda light chain; purified, unconjugated) VH: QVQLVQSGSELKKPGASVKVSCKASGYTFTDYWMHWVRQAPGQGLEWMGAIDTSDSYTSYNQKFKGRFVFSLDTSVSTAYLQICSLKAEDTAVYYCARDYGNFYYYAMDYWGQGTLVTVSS VL: QAVVTQEPSLTVSPGGTVTLTCRSSTGAVTTSNYANWFQQKPGQAPRTLIYGTNNRAPWTPARFSGSLLGGKAALTLSGAQPEDEAEYYCALWYSNHWVFGGGTKLTVL ... 9.7

So what does the record say about IC50 for 5Hg2-5Lg3 human Alya IgG1 (antibody, V domains shown, Humanised 5E3; human IgG1 Alya constant (239iCys, S442C, EU), lambda light chain; purified, unconjugated) VH: QVQLVQSGAEVKKPGASVKVSCKASGYTFTDYWMHWVRQAPGQRLEWMGAIDTSDSYTSYNQKFKGRVTITRDTSASTAYMELSSLRSEDTAVYYCARDYGNFYYYAMDYWGQGTLVTVSS VL: QTVVTQEPSFSVSPGGTVTLTCRSSTGAVTTSNYANWYQQTPGQAPRTLIYGTNNRAPGVPDRFSGSILGNKAALTITGAQADDESDYYCALWYSNHWVFGGGTKLTVL ? 11.3
